Values were extracted from PubChem BioAssay (Tox21).

Experiment: qHTS assay for identifying genotoxic compounds that show differential cytotoxicity against isogenic chicken DT40 cell lines with known DNA damage response pathways - Rev3 mutant cell line (AID 743014); also: % is scaled to controls: 0 for no effect and ±100 for the full control effect; nearly all actives have a fitted effect of over 55% in size
Details: chicken DT40 Rev3-/- viability, CellTiter-Glo, 40 h; series mostly up to 68.4 µM
Results filed as inconclusive are left out. The source made the active and inactive calls. Calls follow the shape of the dose curve; as a rule, active = well fitted cell-killing curve with a large enough effect in the repeat runs; inconclusive = weak or mixed curves, or effect the other way; inactive = no such curve, though single readings can be large or run the other way.
Choose one outcome from this list and give only that: 1 (active), -1 (inactive)

Compound: CCCC(C)C1(CC)C(=O)N=C(S)NC1=O (stereo not given)
Cat: -1

Now for another entry.
Exercise: Answer briefly: the call reported for N#CN=C1SCCN1Cc1ccc(Cl)nc1 in this assay.
Solution: -1

====

Test: qHTS assay for small molecules that induce genotoxicity in human embryonic kidney cells expressing luciferase-tagged ATAD5 - cell viability (AID 651634); also: nearly all actives have a fitted effect of over 25% in size
Settings: HEK293T ATAD5-luc cells viability, CellTiter-Fluor, 15.5 h; series mostly up to 83.3 µM
Results filed as inconclusive are left out. Active and inactive are the calls of the source. The call rests on the fitted dose curve.
Choose one outcome from this list and give only that: t = active, f = inactive

Compound: COP(=O)(OC)O/C(C)=C/C(=O)N(C)C
Cat: f
//
Compound: C=CC(=O)OCCN(C)C
Cat: f
//
Compound: O=C(O)C(Cl)Br (stereo not given)
Cat: f
//
Compound: C/C=C/CC#N
Cat: f
//
Compound: O=S1(=O)OCCO1
Cat: f
//
Compound: COc1cc(CC(C)N)cc(OC)c1OC (stereo not given)
Cat: f
//
Compound: CCNc1nc(Cl)nc(NC(C)(C)C)n1
Cat: f
//
Compound: CC(C)NCC(O)c1ccc([N+](=O)[O-])cc1 (stereo not given)
Cat: f

Exercise: Answer briefly: the call reported for CC(C)N(Cc1ccccc1)C(=O)C(C)(C)C in this assay.
Solution: f

Exercise: Answer briefly: the call reported for CC(C)(C)c1cc(O)ccc1O in this assay.
Solution: f

Exercise: Answer briefly: the call reported for CC(C)(N)Cc1ccc(Cl)cc1 in this assay.
Solution: f

Exercise: Answer briefly: the call reported for COC(=O)c1ccc(CBr)cc1 in this assay.
Solution: f

Exercise: Answer briefly: the call reported for C[C@H]1CCCC(=O)CCC/C=C/c2cc(O)cc(O)c2C(=O)O1 in this assay.
Solution: t

Exercise: Answer briefly: the call reported for CC(Cc1ccccc1)NCCn1cnc2c1c(=O)n(C)c(=O)n2C (stereo not given) in this assay.
Solution: f

Exercise: Answer briefly: the call reported for C=CCc1cc(OC)c2c(c1)OCO2 in this assay.
Solution: f

====

Test: qHTS assay to test for compound auto fluorescence at 590 nm (red) in HEK293 cell free culture (AID 720683); also: % is scaled to controls: 0 for no effect and ±100 for the full control effect
Conditions: cell-free medium autofluorescence, Ex540/Em590 red; series mostly up to 91.3 µM
From the text: U.S. Tox21 Program National Center for Advancing Translational Sciences [NCATS] NIH Chemical Genomics Center [NCGC] U.S. Environmental Protection Agency [EPA] National Institutes of Environmental Health Sciences [NIEHS] National Toxicology Program [NTP] U.S. Food and Drug Administration [FDA] Tox21 Assay Overview: Compound auto fluorescence often interferes with screening of the compound library against various biological targets and signaling pathways. […] This assay includes the red fluorescence data. […]
Active and inactive are the calls of the source. The call rests on the fitted dose curve; in most records, active means well fitted curve in the direction sought with a large enough effect in the repeat runs; inconclusive means weak or mixed curves; inactive means flat fitted curve, though single readings scatter.
Assay Readout: fluorescence, % of fluorescent control

Examples from the recorded data:
Molecule: CCC1(c2ccccc2)C(=O)N(COC)C(=O)N(COC)C1=O
Assay Readout: fluorescence, % of fluorescent control
Result: inactive

Molecule: CC(C)NCC(O)c1ccc([N+](=O)[O-])cc1 (stereo not drawn)
Assay Readout: fluorescence, % of fluorescent control
Result: inactive

Molecule: CNC(=O)Oc1ccccc1C(C)C
Assay Readout: fluorescence, % of fluorescent control
Result: inactive

Molecule: CCCC(C)(COC(N)=O)COC(N)=O
Assay Readout: fluorescence, % of fluorescent control
Result: inactive

Molecule: COc1cc(CCN)cc(OC)c1OC
Assay Readout: fluorescence, % of fluorescent control
Result: inactive

Molecule: CC[C@@H](CO)NC(=O)[C@@H]1C=C2c3cccc4c3c(cn4C)C[C@H]2N(C)C1
Assay Readout: fluorescence, % of fluorescent control
Result: inactive

Exercise: Give the measured fluorescence, % of fluorescent control of O=C1CCCCC1Cl (stereo not drawn) .
Solution: inactive

Exercise: Give the measured fluorescence, % of fluorescent control of C[N+]1(C)CCCCC1 .
Solution: inactive
